Data provenance: PubChem BioAssay (NCI)

Tested on: UACC-257 melanoma
Test Description: NCI tumour cell line growth inhibition, 48 h; in the data active means GI50 below about 0.43 µM; inactive means the rest
Use one of these outcomes when replying: y for active, n for inactive

Answered examples (10):
1) COc1ccc(C(=O)COc2cccc(/C=C3\Oc4ccc5ccccc5c4C3=O)c2)cc1    n
2) O=C(Nc1ccc(-n2cc(-c3ccncc3)c(-c3ccc(Cl)c(O)c3)n2)cc1)Nc1ccc(Cl)c(C(F)(F)F)c1    n
3) Cc1cc[c-]cc1.Fc1c[c-]c(-c2ccccn2)c(F)c1.[Pt+2].c1ccc(P(C[PH+](c2ccccc2)c2ccccc2)c2ccccc2)cc1    n
4) CN(CCCNC(=O)Cc1ccc2ccc3cccc4ccc1c2c34)CCCNc1cc(-c2ccc3ccccc3c2)nc2ccccc12    n
5) O=C(Nc1ccc(-c2ccccc2)cc1)C1CCN(S(=O)(=O)c2ccccc2Cl)CC1    n
6) COc1ccc2c(c1)C(C)Cc1c(ncnc1-n1c(C)nc3ccccc31)N2C (stereo unspecified)    n
7) CCOC(=O)CNC(=O)c1ccccc1Nc1ccnc(C(F)(F)F)c1    n
8) COc1cccc(/C(COc2ccc3c(c2)oc(=O)c2cc(OC)ccc23)=N/O)c1    n
9) NC(CS/C(Cl)=C/Cl)C(=O)O (stereo unspecified)    n
10) Cc1cc(N/N=C/c2nc(-c3ccc(Br)cc3)oc2C)c2cc(Br)ccc2n1    n

Query block: Answer briefly: the call reported for COc1ccc(-c2c[nH]c(=S)n2-c2ccc(OC)cc2)cc1 in this assay.
Result block: n

Query block: Please let me know the test result on file for Oc1cn(-c2ccc(Cl)cc2)nc1-c1n[nH]c(=S)n1C1CCCCC1 .
Result block: n

Query block: # fetch the recorded call for O=C(/C=C/c1cc(CN2CCOCC2)c(O)c2ncccc12)c1cc(CN2CCOCC2)c(O)c2ncccc12 here
Result block: y

Query block: Please share the test call associated with COc1ccc2c(O)cc3c(c2c1)[C@H](CCl)CN3C(=O)c1cc2cc(NC(=O)CCN3CCOCC3)ccc2[se]1 .
Result block: y

Query block: State the result this test recorded for CC(C)N=c1cc2n(-c3ccc(Cl)cc3)c3ccccc3nc-2cc1Nc1ccc(Cl)cc1 .
Result block: n

Query block: Which outcome was entered for the molecule NC(N)=NCCCCCNc1noc(Cc2c[nH]c3cc(Br)ccc23)n1 in this test?
Result block: n

Query block: Please share the test call associated with Cc1cc(I)cc(CN(C)CCCN2CCOCC2)c1O .
Result block: n

* * *

System: MOLT-4 leukemia
Test Description: NCI tumour cell line growth inhibition, 48 h
Assay Readout: TGI

Example entries begin here.
1. CC(C)CNC(=O)O    > 100 µM
2. N#C/C(=C\n1ccc(=O)[nH]c1=S)C(N)=O    > 100 µM

Measured TGI of CC1CCOc2ccc(cc2)C=Nc2ccc(cc2)CCc2ccc(cc2)N=Cc2ccc(cc2)OCC1 (stereo not given) : > 100 µM

TGI in this record for C[C@]12CC[C@H](O)C[C@H]1CC[C@@H]1[C@@H]2CC[C@]2(C)[C@@H](C3=CC(=O)OC3)CC[C@]12O : 0.0537 µM

compound Nc1cccc(Nc2nc3ccccc3nc2NS(=O)(=O)c2ccccc2)c1 , TGI observed: 48.9 µM

* * *

Tested on: SK-MEL-28 melanoma
Test Description: NCI tumour cell line growth inhibition, 48 h
Measured TGI, listed per entry for reference.

1. CC1(CF)SCc2nc3ccccc3n21 (stereo not drawn)    > 100 µM
2. NC(=O)NNC(=O)c1nc[nH]c1[N+](=O)[O-]    > 100 µM
3. COc1ccc2c(c1)[C@@]13CCCC[C@H]1[C@@H](C2)N(C)CC3=O    30 µM
4. COc1ccc(C2c3cc(OC)c(OC)cc3C(Cc3ccc([N+](=O)[O-])cc3)C2c2ccc([N+](=O)[O-])cc2)cc1OC (stereo not drawn)    > 100 µM
5. CN(C)c1ccc(C2SCC(=O)N2NS(=O)(=O)c2cccc(C(=O)O)c2)cc1 (stereo not drawn)    > 100 µM

Continue with the compound presented below.
In plain terms, O=c1c2ncn(COCCCl)c2n(-c2ccccc2)c(=S)n1-c1ccccc1 has a documented TGI of > 100 µM
